Please go through the items and note down their furin cleavage Z-score.
# TARGET_ENTITY: furin, P09958;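 also: purified furin at 1:10 enzyme:substrate in 50 mM HEPES pH 7.5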
# Sequence (P09958 whole entry): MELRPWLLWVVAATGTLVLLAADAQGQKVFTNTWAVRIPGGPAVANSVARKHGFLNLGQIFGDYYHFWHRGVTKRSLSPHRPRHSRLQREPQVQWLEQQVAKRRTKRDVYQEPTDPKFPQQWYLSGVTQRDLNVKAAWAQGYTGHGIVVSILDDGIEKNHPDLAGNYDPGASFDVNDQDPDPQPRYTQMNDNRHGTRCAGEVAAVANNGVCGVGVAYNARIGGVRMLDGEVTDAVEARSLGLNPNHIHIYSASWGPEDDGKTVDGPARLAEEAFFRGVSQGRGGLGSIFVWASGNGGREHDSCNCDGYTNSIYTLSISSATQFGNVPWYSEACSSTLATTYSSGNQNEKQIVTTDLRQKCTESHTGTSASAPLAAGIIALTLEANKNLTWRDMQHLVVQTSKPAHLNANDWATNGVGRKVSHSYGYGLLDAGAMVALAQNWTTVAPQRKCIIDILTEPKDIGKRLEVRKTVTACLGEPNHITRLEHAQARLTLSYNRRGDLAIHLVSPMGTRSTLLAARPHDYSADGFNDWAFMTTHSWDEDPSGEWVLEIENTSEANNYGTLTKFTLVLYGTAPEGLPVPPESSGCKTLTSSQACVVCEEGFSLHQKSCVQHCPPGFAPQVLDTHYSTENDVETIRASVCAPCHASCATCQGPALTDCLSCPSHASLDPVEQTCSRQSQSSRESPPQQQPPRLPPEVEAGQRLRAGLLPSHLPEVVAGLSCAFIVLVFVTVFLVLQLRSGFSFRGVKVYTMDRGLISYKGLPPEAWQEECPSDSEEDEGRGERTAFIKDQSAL
# ASSAY_PROCEDURE: furin cleavage Z-score vs untreated control; higher = more cleavage, active = 3.5 or more, inactive = 1 or less, 8 variable residues between constant flanks
# CONDITIONS: 15 min
The other results are listed elsewhere or left out. How many sequences the whole screen found active is unknown.

In: Quickly give me recorded furin cleavage Z-score for CALQGRSSRDAGNASASA [FS-357]
Out: 1.14

In: Quickly give me recorded furin cleavage Z-score for CAGQPRRSRDAGNASASA [FS-430]
Out: 9.91 (active)

In: Quickly give me recorded furin cleavage Z-score for CATHRRQKRDAGNASASA [FS-1092]
Out: 2.56

In: Quickly give me recorded furin cleavage Z-score for CAPPPRRTRDAGNASASA [FS-840]
Out: 7.26 (active)

In: Quickly give me recorded furin cleavage Z-score for CAPWQRVDRDAGNASASA [FS-843]
Out: 0.153 (inactive)

In: Quickly give me recorded furin cleavage Z-score for CAALEVVTSTAGNASASA [HC2263]
Out: -0.918 (inactive)

Values were extracted from the supplement of paper PMC3545927.
